- Test system: HEK-293T
- assay.comment: Multiplex assay against HEK293T
- Format: toxicity, cell-based
- condition.label: human, 12 h, 10 µM, compound concentration 10 uM, replicate 2
Tag: Fulfilled if measured Population Mitochondria Different-Phenotype (%) is not below 70%, Not fulfilled if it is.

> print(dat)
                                   molecule  assayed.system  answer.label
1  NCCc1cn(S(=O)(=O)c2c(Cl)nc3sccn23)c2ccccc12.O=C(O)C(=O)O        HEK-293T     Fulfilled

Please tell me: is the molecule Cc1cccc(NC(=O)CN2CCC(c3ccccn3)CC2)c1.Cl.Cl at or over 70% in terms of Population Mitochondria Different-Phenotype (%)?
Fulfilled

Please tell me: is the molecule CCCOc1ccc2[nH]cc(C3=CCNCC3)c2n1.Cl at or over 70% in terms of Population Mitochondria Different-Phenotype (%)?
Fulfilled

Please tell me: is the molecule CN[C@@H](C)C(=O)N[C@H](C(=O)N1CCC[C@H]1C(=O)Nc1snnc1-c1ccccc1)C1CCCCC1 at or over 70% in terms of Population Mitochondria Different-Phenotype (%)?
Fulfilled

Please tell me: is the molecule CC(C)c1noc(N2CCC(COc3ccc(-c4ccc(S(C)(=O)=O)cc4)nc3)CC2)n1 at or over 70% in terms of Population Mitochondria Different-Phenotype (%)?
Fulfilled

Please tell me: is the molecule CC(C)(C)c1cc(NC(=O)Nc2ccc(-c3cn4c(n3)sc3cc(OCCN5CCOCC5)ccc34)cc2)no1 at or over 70% in terms of Population Mitochondria Different-Phenotype (%)?
Fulfilled

Please tell me: is the molecule Cl.NCCc1ccc(O)c(O)c1 [DOPAMINE HYDROCHLORIDE] at or over 70% in terms of Population Mitochondria Different-Phenotype (%)?
Not fulfilled

Please tell me: is the molecule O=C(NCCN1CCC(n2c(=O)[nH]c3cc(Cl)ccc32)CC1)c1ccc(F)cc1 [HALOPEMIDE] at or over 70% in terms of Population Mitochondria Different-Phenotype (%)?
Fulfilled

Please tell me: is the molecule CCCCC1=NC2(CCCC2)C(=O)N1Cc1ccc(-c2ccccc2-c2nnn[nH]2)cc1 at or over 70% in terms of Population Mitochondria Different-Phenotype (%)?
Not fulfilled

Please tell me: is the molecule Cc1c(CC(=O)O)c2cccnc2n1Cc1ccc(S(C)(=O)=O)cc1C(F)(F)F at or over 70% in terms of Population Mitochondria Different-Phenotype (%)?
Not fulfilled

Please tell me: is the molecule CCCCC(=O)N(Cc1ccc(-c2ccccc2-c2nnn[nH]2)cc1)[C@H](C(=O)O)C(C)C at or over 70% in terms of Population Mitochondria Different-Phenotype (%)?
Not fulfilled
